Target: MTHFD1 recombinant human enzyme (Homo sapiens, UniProt P11586)
Sequence (P11586 2-291 limits assumed): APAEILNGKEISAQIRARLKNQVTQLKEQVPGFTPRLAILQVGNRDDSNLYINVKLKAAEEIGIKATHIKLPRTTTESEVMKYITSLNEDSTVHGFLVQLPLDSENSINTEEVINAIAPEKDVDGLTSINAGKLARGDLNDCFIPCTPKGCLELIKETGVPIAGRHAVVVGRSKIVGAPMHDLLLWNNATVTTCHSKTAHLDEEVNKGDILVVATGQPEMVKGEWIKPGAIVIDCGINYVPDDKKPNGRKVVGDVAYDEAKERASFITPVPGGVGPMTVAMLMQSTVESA
Assay: MTHFD1 inhibition assay (NAD(P)H-Glo luminescence)
Details: MTHFD1 IC50, recombinant human enzyme 200 nM, NADP, band
pIC50: −log10 of the molar value.
measured_metric: pIC50

Query: I'd like to know its pIC50. The molecule in question is COC[C@H]1CN(c2cc(C)c3c4c(c(=O)oc3c2C)CN(C(=O)c2cc(N(C)C)c(C(=O)NS(=O)(=O)N3CCC[C@H]3C(F)(F)F)cc2F)CC4)CCN1C
Response: 6.00 to 7.00

Query: Consider the molecule [2H]C([2H])([2H])Oc1cc(C(=O)N2CCc3c(c(=O)oc4c(C)c(N5CCN(C)[C@@H](COC)C5)cc(C)c34)C2)c(Cl)cc1C(=O)NS(=O)(=O)N1CCCC1 and give its measured pIC50.
Response: 5.30 to 6.00

Query: Would you mind telling me what pIC50 value was observed for COC[C@H]1CN(c2cc(Cl)c3c4c(c(=O)oc3c2C)CN(C(=O)c2cc(OC)c(C(=O)NS(=O)(=O)N3C5CCC3CC5)cc2F)CC4)CCN1C ?
Response: 6.00 to 7.00

Query: Could you share which pIC50 value was measured for COC[C@H]1CN(c2cc(C)c3c4c(c(=O)oc3c2C)CN(C(=O)c2cc(N(C)C)c(C(=O)NS(=O)(=O)N(C3CC3)C3CC3)cc2F)CC4)CCN1C ?
Response: 6.00 to 7.00

Query: // pIC50 lookup, key: CCOc1cc(C(=O)N2CCc3c(c(=O)oc4c(C)c(N5CCN(C)[C@@H](COC)C5)cc(CC)c34)C2)c(F)cc1C(=O)NS(=O)(=O)N1CCCC1
Response: 6.00 to 7.00

Query: For COC[C@H]1CN(c2cc(C)c3c4c(c(=O)oc3c2C)CN(C(=O)c2cc(OC)c(C(=O)NS(=O)(=O)N3CC5CC5C3)cc2F)CC4)CCN1C (stereo partly shown) , what is its reported pIC50?
Response: 6.00 to 7.00

Query: Any idea what pIC50 was measured for COC[C@H]1CN(c2ccc3c4c(c(=O)oc3c2C)CN(C(=O)c2cc(Cl)c(C(=O)NS(=O)(=O)C3(C)CC3)c(N3C5CCC3CC5)c2)CC4)CCN1C ?
Response: 7.00 to 8.00

Query: Which pIC50 value is on record for COC[C@H]1CN(c2cc(C)c3c4c(c(=O)oc3c2C)CN(C(=O)c2ccc(C(=O)NS(=O)(=O)N3CCCC3)c(OC3CCCC3)c2F)CC4)CCN1C ?
Response: 8.00 to 9.00

Query: Which pIC50 is listed for COC[C@H]1CN(c2cc(C)c3c4c(c(=O)oc3c2C)CN(C(=O)c2cc(N(C)C)c(C(=O)NS(=O)(=O)N3CCC[C@@H]3C(F)(F)F)cc2F)CC4)CCN1C ?
Response: 6.00 to 7.00

Query: Look at this molecule and give its reported pIC50. CCOc1cc(C(=O)N2CCc3c(c(=O)oc4c(C)c(N5CCN(C)[C@@H](COC)C5)cc(Cl)c34)C2)c(F)cc1C(=O)NS(=O)(=O)N1C2CCC1CC2
Response: 6.00 to 7.00
